ASSAY_TEXT: Cell Viability - LYMP2-015 (AID 971);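 further: cells exposed to compound for 24 h; nearly all actives have a fitted effect of over 55% in size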
MEASUREMENT_PARAMETERS: LYMP2-015 lymphoblastoid cell viability; series mostly up to 92.2 µM
Records with an inconclusive call do not appear. Activity calls are given as the source filed them. The call rests on the fitted dose curve; in most records, active means well fitted cell-killing curve with a large enough effect; inconclusive means small, poorly fitted or top-dose-only effect; inactive means flat fitted curve, though single readings scatter.
Select the correct class. Options are active, inactive and nothing else.

Lookup: Each compound tested received a call. Report the one for CC(C)NCC(O)COc1cccc2ccccc12 (stereo not drawn) .
Found: inactive

Lookup: So what was the verdict on CN1CCC[C@H]1c1cccnc1 in this test?
Found: inactive

Lookup: Hi, do you know how N=C1N=C(N)c2cc3ccccc3cc21 came out in this test?
Found: active

----------
ASSAY_TEXT: Nrf2 qHTS screen for inhibitors: Validation (AID 493153)
MEASUREMENT_PARAMETERS: A549 ARE-Fluc reporter, 18-24 h; measured here: cytotoxicity max response
Records with an inconclusive call do not appear.
molecules and their reported viability change
Express your answer as a number followed by its unit.

Below are worked cases with known answers.
COc1ccc2c(c1)CCC1C2CC[C@@]2(C)C1CC[C@@H]2NCCCCCCN1C(=O)CCC1=O (stereo not given in full) ... 2.91%
CC(C)CC(NP(=O)(O)O[C@@H]1O[C@@H](C)[C@H](O)[C@@H](O)[C@H]1O)C(=O)NC(Cc1c[nH]c2ccccc12)C(=O)O (stereo not given in full) ... -0.0491%

So for CC(=O)/C=C1\C(=O)N(C)c2ccccc21 , the logged viability change turned out to be -4.33%

For reference, reported viability change for COc1cc(SC)ccc1C(=O)N1CCC(Cc2ccccc2)CC1 stands at 1.59%

Briefly, viability change measured for N=C(N)SCCc1ccc(CCSC(=N)N)cc1 : -6.92%

----------
ASSAY_TEXT: Validation screen for small molecules that induce DNA re-replication in SW480 colon adenocarcinoma cells (AID 504364)
MEASUREMENT_PARAMETERS: DNA re-replication phenotype (high-content imaging); series mostly up to 46.1 µM
Inconclusive results are not listed. Calls of active or inactive are those of the source. Calls come from the whole dose curve; as a rule, active = well fitted activation curve with a large enough effect; inconclusive = small, poorly fitted or top-dose-only effect; inactive = flat fitted curve, though single readings scatter.
# output must be one of active, inactive

For orientation, consider the following solved cases.
COc1cc2c(CCNC(C)=O)c[nH]c2cc1Cl ... inactive
c1ccc(-c2ccccn2)nc1 ... inactive
O=c1[nH]c2cc(C(F)(F)F)ccc2n1-c1cc(C(F)(F)F)ccc1O ... inactive

Lookup: Assay result, entry CN[C@H](CC(C)C)C(=O)N[C@H]1C(=O)N[C@@H](CC(N)=O)C(=O)N[C@H]2C(=O)N[C@H]3C(=O)N[C@H](C(=O)N[C@H](C(=O)O)c4cc(O)cc(O)c4-c4cc3ccc4O)[C@H](O)c3ccc(c(Cl)c3)Oc3cc2cc(c3O[C@@H]2O[C@H](CO)[C@@H](O)[C@H](O)[C@H]2O[C@H]2C[C@](C)(N)[C@H](O)[C@H](C)O2)Oc2ccc(cc2Cl)[C@H]1O — outcome?
Found: inactive

Lookup: Record lookup: outcome of this test for CC(=O)SCC[N+](C)(C)C ?
Found: inactive

Lookup: Recorded test call requested for CN1[C@@H](CC(=O)c2ccccc2)CCC[C@H]1C[C@H](O)c1ccccc1
Found: inactive

Lookup: For NO , what call appears in the results of this test?
Found: inactive

Lookup: For this molecule, state the assay outcome: CO/N=C(\C(=O)N[C@@H]1C(=O)N2C(C(=O)O)=C(COC(C)=O)CS[C@H]12)c1csc(N)n1 (stereo in doubt)
Found: inactive

Lookup: Lab log entry: O=C1NC(O)=NC1(c1ccccc1)c1ccccc1 — outcome as called in the assay?
Found: inactive

Lookup: Check the results log: what was the call for C=C/C(C)=C/[C@@]1(C)SC(=O)C(C)=C1O ?
Found: inactive

Lookup: # outcome recorded in this test, key = NC[C@@H]1O[C@H](C23CC4CC(CC(C4)C2)C3)Cc2c1ccc(O)c2O
Found: inactive

Lookup: Given O=S(=O)(c1cccc2c(I)cccc12)N1CCCNCC1 , state the outcome it received in this test.
Found: inactive

Lookup: GET /call?item= O=C(O)c1cc(=O)c2ccccc2[nH]1 returns the recorded outcome of this test.
Found: inactive

Lookup: Test call, this molecule: c1cnc2c(c1)ccc1cccnc12
Found: inactive

Lookup: Please state the recorded outcome for this molecule: O=C(O)/C=C/C(O)c1ccc(Cl)cc1 (stereo not given)
Found: inactive

Lookup: Would you mind telling me which call this test gave C[N+](C)(CCCCCC[N+](C)(C)CCCN1C(=O)c2cccc3cccc(c23)C1=O)CCCN1C(=O)c2cccc3cccc(c23)C1=O ?
Found: inactive

Lookup: Call for entry CCCCCCCCCCCCCCCCCC(=O)OC(CC(=O)O)C[N+](C)(C)C (stereo not given) :
Found: active

Lookup: # outcome recorded in this test, key = NCCCCCCCCCCN
Found: inactive

Lookup: # lookup: test call for CCCN(CC1CC1)c1nc(C)nc(Nc2c(Cl)cc(Cl)cc2Cl)c1Cl
Found: inactive

Lookup: Could you kindly confirm the outcome this assay logged for C=CC(N)CCC(=O)O (stereo not given) ?
Found: inactive
